As shown below, each of these compounds has a reported DC50 value.
- target.desc: IKZF2 (Homo sapiens (Human), UniProt Q96SW2+Q9UKS7)
- Sequence (Q9UKS7 whole entry): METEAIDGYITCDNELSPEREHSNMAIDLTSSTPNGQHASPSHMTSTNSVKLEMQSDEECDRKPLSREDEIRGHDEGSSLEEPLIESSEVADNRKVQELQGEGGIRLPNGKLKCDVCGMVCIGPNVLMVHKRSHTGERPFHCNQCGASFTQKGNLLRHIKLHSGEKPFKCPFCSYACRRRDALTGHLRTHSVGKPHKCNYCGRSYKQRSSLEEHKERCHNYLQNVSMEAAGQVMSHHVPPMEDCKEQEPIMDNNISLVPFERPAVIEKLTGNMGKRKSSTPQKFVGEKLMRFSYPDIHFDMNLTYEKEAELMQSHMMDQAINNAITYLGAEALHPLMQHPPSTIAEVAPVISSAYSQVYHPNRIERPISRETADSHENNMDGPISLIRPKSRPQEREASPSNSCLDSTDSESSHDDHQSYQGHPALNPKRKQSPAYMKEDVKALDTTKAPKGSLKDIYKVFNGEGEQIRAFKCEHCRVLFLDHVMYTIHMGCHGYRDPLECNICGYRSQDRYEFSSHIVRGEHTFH
- Sequence (Q96SW2 whole entry): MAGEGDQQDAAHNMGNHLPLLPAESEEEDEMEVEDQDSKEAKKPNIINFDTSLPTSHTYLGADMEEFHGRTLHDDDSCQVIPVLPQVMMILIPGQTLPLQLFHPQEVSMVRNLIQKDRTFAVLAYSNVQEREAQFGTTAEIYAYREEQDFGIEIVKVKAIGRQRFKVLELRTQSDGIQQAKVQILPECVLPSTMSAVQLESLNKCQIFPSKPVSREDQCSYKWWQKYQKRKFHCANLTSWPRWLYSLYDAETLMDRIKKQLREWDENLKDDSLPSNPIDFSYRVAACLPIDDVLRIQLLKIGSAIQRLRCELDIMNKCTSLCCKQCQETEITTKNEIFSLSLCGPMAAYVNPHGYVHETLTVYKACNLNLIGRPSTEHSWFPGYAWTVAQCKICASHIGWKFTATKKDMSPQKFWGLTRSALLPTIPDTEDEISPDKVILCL
- Sequence (Q16531 2-1140 partner): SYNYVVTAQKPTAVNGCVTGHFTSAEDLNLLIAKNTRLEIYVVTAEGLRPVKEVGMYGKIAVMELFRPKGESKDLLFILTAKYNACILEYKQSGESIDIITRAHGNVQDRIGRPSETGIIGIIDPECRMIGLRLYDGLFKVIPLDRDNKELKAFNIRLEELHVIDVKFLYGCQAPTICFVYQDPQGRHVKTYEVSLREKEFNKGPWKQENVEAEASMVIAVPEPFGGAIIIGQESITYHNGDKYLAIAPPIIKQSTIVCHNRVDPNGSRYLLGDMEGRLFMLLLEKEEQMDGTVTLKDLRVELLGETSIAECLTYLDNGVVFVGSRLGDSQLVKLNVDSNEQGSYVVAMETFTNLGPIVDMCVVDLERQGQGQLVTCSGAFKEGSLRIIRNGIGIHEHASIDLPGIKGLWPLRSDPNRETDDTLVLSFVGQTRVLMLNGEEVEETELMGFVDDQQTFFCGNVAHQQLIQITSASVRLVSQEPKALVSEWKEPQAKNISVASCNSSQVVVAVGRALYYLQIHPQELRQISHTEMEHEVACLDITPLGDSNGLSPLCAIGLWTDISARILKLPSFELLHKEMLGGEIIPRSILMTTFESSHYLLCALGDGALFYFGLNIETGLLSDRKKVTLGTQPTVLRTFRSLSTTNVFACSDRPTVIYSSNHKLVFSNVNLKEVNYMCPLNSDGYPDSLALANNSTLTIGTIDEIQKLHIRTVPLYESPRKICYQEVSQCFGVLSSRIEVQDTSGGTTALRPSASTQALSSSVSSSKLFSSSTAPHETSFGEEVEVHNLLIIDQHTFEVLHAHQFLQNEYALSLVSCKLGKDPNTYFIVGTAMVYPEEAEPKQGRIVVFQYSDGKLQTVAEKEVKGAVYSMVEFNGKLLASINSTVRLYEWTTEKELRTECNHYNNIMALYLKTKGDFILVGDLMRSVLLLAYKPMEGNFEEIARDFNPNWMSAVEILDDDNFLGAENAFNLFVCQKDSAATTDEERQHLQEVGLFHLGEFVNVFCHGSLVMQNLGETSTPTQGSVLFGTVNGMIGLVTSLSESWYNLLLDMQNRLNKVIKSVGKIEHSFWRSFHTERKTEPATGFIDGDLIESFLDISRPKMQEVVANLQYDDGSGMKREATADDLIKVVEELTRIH
- assay.comment: In vitro IKZF2 HiBit Assay (HEK293T Flp-in-HiBiT cells)
- Format: cell-based
- run.parameters: HEK293T Flp-in-HiBiT cells, 6 hrs incubation; read-out: IKZF2 HiBit DC50

O=C1CCC(N2Cc3cc(-c4cc(CN5CCCC5)c5[nH]ccc5n4)ccc3C2=O)C(=O)N1 (stereo not shown) [Example 76] : < 1 nM
O=C1CCC(N2Cc3cc(-c4cc(CN5CCCC5)c5ccn(C6COC6)c5n4)c(Cl)cc3C2=O)C(=O)N1 (stereo not shown) [Example 273] : > 10000 nM
O=C1CCC(N2Cc3cc(-c4cc(CN5CCCC5)c5c(C(F)(F)F)nn(C6COC6)c5n4)ccc3C2=O)C(=O)N1 (stereo not shown) [Example 245] : 1 to 10 nM

Read the next record carefully.
INPUT: Look up and state reported DC50 for CC(C)Nc1n[nH]c2c(CN3CCC(C(F)(F)F)CC3)cc(-c3ccc4c(c3F)CN(C3CCC(=O)NC3=O)C4=O)nc12 (stereo not shown) [Example 290]
OUTPUT: 1 to 10 nM

* * *

- target.desc: IKZF2 (Homo sapiens (Human), UniProt Q96SW2+Q9UKS7)
- assay.comment: In vitro IKZF2 HiBit Assay (HEK293T Flp-in-HiBiT cells)
- Assay type: cell-based
- run.parameters: HEK293T Flp-in-HiBiT cells, 6 hrs incubation; read-out: IKZF2 HiBit DC50
As shown below, each of these molecules has a reported DC50 value.

CN(C)C(=O)CC1CCN(Cc2cc(-c3ccc4c(c3)CN(C3CCC(=O)NC3=O)C4=O)nc3[nH]ccc23)C1 (stereo not shown) : 0.01 to 0.1 µM
O=C1CCC(N2Cc3cc(-c4cc(CN5CCCC5)c5ccn(C6CCC6)c5n4)ccc3C2=O)C(=O)N1 (stereo not shown) : < 0.001 µM
Cn1ccc2c(CN3CCCC3)c(Cl)c(-c3ccc4c(c3F)CN(C3CCC(=O)NC3=O)C4=O)nc21 (stereo not shown) : < 0.001 µM
O=C1CCC(N2Cc3cc(-c4cc(CN5CCCC5)c5nc[nH]c5n4)ccc3C2=O)C(=O)N1 (stereo not shown) : 0.1 to 1 µM
O=C1CCC(N2Cc3cc(-c4cc(CN5CCC(O)CC5)c5ccn(C6CC6)c5n4)ccc3C2=O)C(=O)N1 (stereo not shown) : 0.001 to 0.01 µM

INPUT: Look up and state reported DC50 for O=C1CCC(N2Cc3c(ccc(-c4cc(CN5CCCC5)c5cc[nH]c5n4)c3F)C2=O)C(=O)N1 (stereo not shown)
OUTPUT: < 0.001 µM

INPUT: Look up and state reported DC50 for O=C1CCC(N2Cc3cc(-c4cc(CN5CCCCC5)cc5cncn45)ccc3C2=O)C(=O)N1 (stereo not shown)
OUTPUT: 0.01 to 0.1 µM

* * *

- target.desc: IKZF1 (Homo sapiens (Human), UniProt Q13422+Q96SW2)
- Sequence (Q13422 whole entry): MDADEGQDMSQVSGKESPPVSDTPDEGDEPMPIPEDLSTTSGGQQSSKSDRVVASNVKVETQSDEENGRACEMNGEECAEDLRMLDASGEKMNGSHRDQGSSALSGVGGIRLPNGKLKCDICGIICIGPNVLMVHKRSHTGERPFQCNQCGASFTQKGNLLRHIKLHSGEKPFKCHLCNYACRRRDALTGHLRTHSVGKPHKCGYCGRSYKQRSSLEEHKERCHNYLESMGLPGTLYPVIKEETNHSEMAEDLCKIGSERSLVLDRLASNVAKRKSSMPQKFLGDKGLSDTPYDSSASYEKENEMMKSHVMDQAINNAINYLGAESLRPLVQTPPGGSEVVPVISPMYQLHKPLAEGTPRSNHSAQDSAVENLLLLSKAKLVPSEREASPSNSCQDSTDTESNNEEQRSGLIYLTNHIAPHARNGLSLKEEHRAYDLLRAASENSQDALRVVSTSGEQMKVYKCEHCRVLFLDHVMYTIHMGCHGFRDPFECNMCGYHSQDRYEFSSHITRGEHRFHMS
- Sequence (Q96SW2 whole entry): as the sequence (Q96SW2 whole entry) above
- Sequence (Q16531 2-1140 partner): as the sequence (Q16531 2-1140 partner) above
- assay.comment: In vitro IKZF1 HiBit Assay (HEK293T Flp-in-HiBiT-IKZF1 stable cell line)
- Format: cell-based
- run.parameters: HEK293T Flp-in-HiBiT-IKZF1 stable cell line, 6 hrs incubation; read-out: IKZF1 HiBit DC50
As shown below, each of these molecules has a reported DC50 value.

Recorded results for 6 molecules are shown here.
O=C1CCC(N2Cc3cc(-c4cc(CN5CCC(O)CC5)c5ccn(C6CC6)c5n4)ccc3C2=O)C(=O)N1 (stereo not shown) : 0.01 to 0.1 µM
O=C1CCC(N2Cc3cc(-c4cc(CN5CCC6(CC5)COC6)cc5cncn45)ccc3C2=O)C(=O)N1 (stereo not shown) : > 10 µM
Cn1ccc2c(CN3CCC(n4cccn4)CC3)cc(-c3ccc4c(c3)CN(C3CCC(=O)NC3=O)C4=O)nc21 (stereo not shown) : > 10 µM
O=C1CCC(N2Cc3c(ccc(-c4cc(CN5CCCC5)c5ccn(C6COC6)c5n4)c3Cl)C2=O)C(=O)N1 (stereo not shown) : > 10 µM
COC1CCN(Cc2cc(-c3ccc4c(c3)CN(C3CCC(=O)NC3=O)C4=O)nc3c2ccn3C)CC1 (stereo not shown) : 0.01 to 0.1 µM
Cc1cc(-c2ccc3c(c2)CN(C2CCC(=O)NC2=O)C3=O)nc2oc(CN3CCCC3)nc12 (stereo not shown) : > 10 µM

Read the next record carefully.
INPUT: Look up and state reported DC50 for CC(C)Nc1n[nH]c2c(CN3CCCC3)cc(-c3ccc4c(c3)CN(C35CC(C3)C(=O)NC5=O)C4=O)nc12
OUTPUT: > 10 µM

* * *

- target.desc: IKZF2 (Homo sapiens (Human), UniProt Q96SW2+Q9UKS7)
- assay.comment: In vitro IKZF2 HiBit Assay (HEK293T Flp-in-HiBiT cells)
- Format: cell-based
- run.parameters: HEK-293T; HEK293T Flp-in-HiBiT cells, 6 hrs incubation; read-out: IKZF2 HiBit Dmax (%)
- Experimental: In Vitro IKZF2 HiBit Assay The HiBiT protein tagging system was applied to modified HEK293T Flp-in-HiBiT cells (polyclone) via a CRISPR/Cas9-mediated insertion of the HiBiT peptide tag (Promega™) to the N-terminus of the IKZF2 gene locus (Neon™ transfection system). Test and reference compounds are diluted from 1 mM at 3 folds for 11 doses. […] The amount of Nano-Glo® HiBiT lytic reagent needed to perform the desired experiments is calculated. […] After briefly centrifuge, the plate is read on Envision. […]
readout: Dmax

Recorded results for 6 molecules are shown here.
O=C1CCC(N2Cc3cc(-c4cc(CN5CCC(O)CC5)c5cc[nH]c5n4)ccc3C2=O)C(=O)N1 (stereo not shown) : > 80%
Nc1[nH]nc2c(CN3CCCC3)cc(-c3ccc4c(c3F)CN(C3CCC(=O)NC3=O)C4=O)nc12 (stereo not shown) : > 80%
CC(C)n1nc(N)c2nc(-c3ccc4c(c3)CN(C3CCC(=O)NC3=O)C4=O)cc(CN3CCCC3)c21 (stereo not shown) : 60 to 80%
O=C1CCC(N2Cc3cc(-c4cc(CN5CCC(O)CC5)c5ccn(C6COC6)c5n4)ccc3C2=O)C(=O)N1 (stereo not shown) : 60 to 80%
COC[C@@H]1CCCN1Cc1cc(-c2ccc3c(c2)CN(C2CCC(=O)NC2=O)C3=O)nc2c1ccn2C1COC1 (stereo partly shown) : 60 to 80%
O=C1CCC(N2Cc3cc(-c4cc(CN5CCCC5)c5nccc(N6CCC6)c5n4)ccc3C2=O)C(=O)N1 (stereo not shown) : 60 to 80%

INPUT: Look up and state reported Dmax for CC(C)Nc1n[nH]c2c(CN3CCCC3)cc(-c3ccc4c(c3Cl)CN(C3CCC(=O)NC3=O)C4=O)nc12 (stereo not shown)
OUTPUT: 60 to 80%

* * *

- target.desc: IKZF2 (Homo sapiens (Human), UniProt Q96SW2+Q9UKS7)
- assay.comment: In vitro IKZF2 HiBit Assay (HEK293T Flp-in-HiBiT cells)
- Format: cell-based
- run.parameters: HEK-293T; HEK293T Flp-in-HiBiT cells, 6 hrs incubation; read-out: IKZF2 HiBit Dmax (%)
readout: Dmax

Recorded results for 3 molecules are shown here.
O=C1CCC(N2Cc3cc(-c4cc(CN5CCCC5)c5ccn(CCO)c5n4)ccc3C2=O)C(=O)N1 (stereo not shown) : 60 to 80%
Cn1ccc2c(CN3CCSCC3)cc(-c3ccc4c(c3)CN(C3CCC(=O)NC3=O)C4=O)nc21 (stereo not shown) : > 80%
Cn1ccnc1N1CCN(Cc2cc(-c3ccc4c(c3)CN(C3CCC(=O)NC3=O)C4=O)nc3c2ccn3C)CC1 (stereo not shown) : 40 to 60%

INPUT: Look up and state reported Dmax for CC1CCN(Cc2cc(-c3ccc4c(c3)CN(C3CCC(=O)NC3=O)C4=O)nc3c2ccn3C)CC1 (stereo not shown)
OUTPUT: > 80%

INPUT: Look up and state reported Dmax for COC1CCN(Cc2cc(-c3ccc4c(c3)CN(C3CCC(=O)NC3=O)C4=O)nc3c2ccn3C)CC1 (stereo not shown)
OUTPUT: > 80%

INPUT: Look up and state reported Dmax for O=C1CCC(N2Cc3cc(-c4cc(CN5CC(F)C5)c5ccn(C6CC6)c5n4)ccc3C2=O)C(=O)N1 (stereo not shown)
OUTPUT: > 80%

INPUT: Look up and state reported Dmax for Nc1n[nH]c2c(CN3CCC4(CC3)COC4)cc(-c3ccc4c(c3)CN(C3CCC(=O)NC3=O)C4=O)nc12 (stereo not shown)
OUTPUT: 60 to 80%

* * *

As shown below, each of these compounds has a reported Dmax value.
- target.desc: IKZF2 (Homo sapiens (Human), UniProt Q96SW2+Q9UKS7)
- assay.comment: In vitro IKZF2 FACS Assay in Jurkat cells
- Format: cell-based
- run.parameters: 24 hrs, maximal degradation percentage
- Experimental: In vitro IKZF2 FACS Assay DC50, A: <1 nM; B: 1-10 nM; C: 10-100 nM; D: 100-1000 nM; E: >1000 nM. Dmax, A: >80%; B: 60-80%; C: 40-60%; D: 20-40%; E: <20%.

O=C1CCC(N2Cc3c(ccc(-c4cc(CN5CCCC5)c5ccn(C6COC6)c5n4)c3Cl)C2=O)C(=O)N1 (stereo not drawn) : 60 to 80%

INPUT: Look up and state reported Dmax for C[C@@H](c1ccccc1)N(C)Cc1cc(-c2ccc3c(c2)CN(C2CCC(=O)NC2=O)C3=O)n2cncc2c1 (single isomer, unassigned)
OUTPUT: 20 to 40%

INPUT: Look up and state reported Dmax for O=C1CCC(N2Cc3cc(-c4cc(CN5CC6COCC(C6)C5)c5cc[nH]c5n4)ccc3C2=O)C(=O)N1 (stereo not drawn)
OUTPUT: > 80%
